Reference source: paper PMC8519022

Tgt: Bos taurus trypsin 1 (T1) (Bos taurus, UniProt P00760)
Sequence (P00760 24-246): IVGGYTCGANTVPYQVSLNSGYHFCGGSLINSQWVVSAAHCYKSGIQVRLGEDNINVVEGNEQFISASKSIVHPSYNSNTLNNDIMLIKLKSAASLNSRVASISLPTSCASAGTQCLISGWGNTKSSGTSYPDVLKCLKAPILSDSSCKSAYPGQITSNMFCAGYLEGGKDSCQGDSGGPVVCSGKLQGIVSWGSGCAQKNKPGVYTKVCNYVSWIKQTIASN
Protocol text: Trypsin inhibition, Ki by Lineweaver-Burk analysis;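 further: trypsin activity followed by spectrophotometric hydrolysis kinetics of the chromogenic substrate BAPNA in Tris buffer, Ki obtained from double-reciprocal Lineweaver–Burk plots at several substrate concentrations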
Settings: K i [nM] (closed)
*1 amine or outer side, *2 acyl side, *3 side chain or, on linkers, in order; H or OH if unused. Where a SMILES comes first, the peptide text is derived from it. Bridges are numbered along the chain shown (N, C = ends). X1 = Cc1sc(C(=O)[C@@H]2CCCN2[*:2])cc1C1=C(c2cc(C(=O)[*:1])sc2C)CCC1
Readout kind: Ki (nM)
Report the value in nM with no unit label.

Ask: Look up Ki of CC[C@H](C)[C@@H]1NC(=O)[C@@H]2CCCN2C(=O)[C@@H]2CCCN2C(=O)[C@H]([C@@H](C)CC)NC(=O)[C@H](CO)NC(=O)[C@H](CCCCN)NC(=O)[C@H]([C@@H](C)O)NC(=O)[C@@H]2CSSC[C@H](NC1=O)C(=O)N[C@@H](CCCNC(=N)N)C(=O)N[C@@H](CC(C)C)C(=O)N1CCC[C@H]1C(=O)c1cc(c(C)s1)C1=C(CCC1)c1cc(sc1C)C(=O)N[C@@H](C(C)C)C(=O)N[C@@H](Cc1ccccc1)C(=O)N2 [Peptide S10i] (VFCTKSIPPICRL; disulfide 3-11; linker N-C via X1) and report it.
Reply: 44.8

Ask: Look up Ki of CC[C@H](C)[C@@H]1NC(=O)[C@@H]2CCCN2C(=O)[C@@H]2CCCN2C(=O)[C@H]([C@@H](C)CC)NC(=O)[C@H](CO)NC(=O)[C@H](CCCCN)NC(=O)[C@H]([C@@H](C)O)NC(=O)[C@@H]2CSSC[C@H](NC1=O)C(=O)N[C@@H](Cc1ccccc1)C(=O)N1CCC[C@H]1C(=O)c1cc(c(C)s1)C1=C(CCC1)c1cc(sc1C)C(=O)N[C@@H](C(C)C)C(=O)N[C@@H](CCCNC(=N)N)C(=O)N2 [Peptide S8n] (VRCTKSIPPICF; disulfide 3-11; linker N-C via X1) and report it.
Reply: 125
